ASSAY_SYSTEM: T1, EGFR-Wt (Homo sapiens, UniProt P00533)
T1 construct: with the advantage of testing full-length integral membrane proteins; (GGGGS)2 linker-Cub (human ubiquitin aa 35-76)-GAL4(1-147)-mNFkB(364-550) (C); expressed in transfected cells
PROTOCOL: MaMTH EGFR-interactor screen, lentiviral preys against EGFR-wildtype bait (interaction score)
Type: cell-based
REPORTED_CONDITIONS: MaMTH interaction score of prey with EGFR-Wt bait, mean
RESULT_TYPE: EGFR-Wt mean
Reply with the value as a number alone.

>>> reading("TXN (protein, UniProt P10599 2-105, looked up) Thioredoxin: VKQIESKTAFQEALDAAGDKLVVVDFSATWCGPCKMIKPFFHSLSEKYSNVIFLEVDVDDCQDVASECEVKCMPTFQFFKKGQKVGEFSGANKEKLEATINELV")
5.10

Report EGFR-Wt mean, nothing else, for this molecule: SLA (protein, UniProt Q13239 2-276, looked up) Src-like-adapter: GNSMKSTPAPAERPLPNPEGLDSDFLAVLSDYPSPDISPPIFRRGEKLRVISDEGGWWKAISLSTGRESYIPGICVARVYHGWLFEGLGRDKAEELLQLPDTKVGSFMIRESETKKGFYSLSVRHRQVKHYRIFRLPNNWYYISPRLTFQCLEDLVNHYSEVADGLCCVLTTPCLTQSTAAPAVRASSSPVTLRQKTVDWRRVSRLQEDPEGTENPLGVDESLFSYGLRESIASYLSLTSEDNTSFDRKKKSISLMYGGSKRKSSFFSSPPYFED
2.78

// Input: CAV2 (protein, UniProt P51636 1-162, looked up) Caveolin-2: MGLETEKADVQLFMDDDSYSHHSGLEYADPEKFADSDQDRDPHRLNSHLKLGFEDVIAEPVTTHSFDKVWICSHALFEISKYVMYKFLTVFLAIPLAFIAGILFATLSCLHIWILMPFVKTCLMVLPSVQTIWKSVTDVIIAPLCTSVGRCFSSVSLQLSQD . Output its EGFR-Wt mean only.
2.57
